B1: CPEB3 Ribozyme (parent)
chain: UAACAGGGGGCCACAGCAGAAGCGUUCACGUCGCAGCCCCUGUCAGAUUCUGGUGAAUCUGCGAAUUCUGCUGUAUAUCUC

Variants of: B1
Test method notes: self-cleavage, relative activity (ratio to wild type); higher = more cleavage; in vitro, sequencing
Output schema: class label derived from self-cleavage. Mapping: label 0: < 0.2; label 1: ≥ 0.2 and < 0.4; label 2: ≥ 0.4

C39U A64U    label 1
G8U U78C    label 0

Here is another variant to look at.
Task: Note: place this variant into its band. Item: U41C U48C
Output: label 2

Ref: the RNAGym collection of RNA variant scans (doi:10.1093/nar/gkz1192)
